Structures can show the parent of a compound that is named as a salt.
melting point for assorted molecules

# molecule, melting point
rows = [
    ("Fc1c(F)c(F)c2[nH]c(Nc3c(Cl)cccc3Cl)nc2c1F (as salt: hydrochloride) [Example 14]", "220 to 222 °C"),
]

Give the reported value of melting point for this record: Oc1ccc2[nH]c(Nc3c(Cl)cccc3Cl)nc2c1 (as salt: hydrobromid) [Example 13, hydrobromide]
265 to 269 °C

Report melting point for FC(F)(F)c1cccc(Cl)c1Nc1nc2ccccc2[nH]1 (as salt: hydrochloride) [Example 11]
255 to 288 °C

Specify measured melting point for Fc1ccc2[nH]c(Nc3c(Cl)cccc3Cl)nc2c1 (as salt: hydrochloride) [Example 9] .
294 to 296 °C

Dear colleague, please send me the reported melting point for Cl.Fc1cccc2nc(Nc3c(Cl)cccc3Cl)[nH]c12 [Example 10] when you can.
268 to 296 °C

Please supply the value of reported melting point for the item Cl.Fc1cc(F)c2[nH]c(Nc3c(Cl)cccc3Cl)nc2c1 [Example 15]
310 to 314 °C

Using the record for Cl.Oc1cccc2[nH]c(Nc3c(Cl)cccc3Cl)nc12 [Example 2] , state its measured melting point.
333 to 335 °C
